Test details: Plasma binding of 5-MIAA (unbound fraction)
Assay type: in vitro ADME
Condition details: human plasma; read-out: plasma binding (mean fraction unbound)
Measurement kind: fraction unbound

Entry under review: "COc1ccc2[nH]cc(CC(=O)O)c2c1" . Reported fraction unbound?
~0.5

###

Test details: Metabolic stability in Hμrel human hepatocyte co-culture model
Condition details: human, Hμrel HumanPool primary human hepatocyte co-culture
Measurement kind: hepatocyte CLint at 1 μM (µL/min/1e6 cells)
Give bare numbers, in µL/min/1e6 cells.

Entry under review: "COc1ccc2[nH]cc(CC(=O)O)c2c1" . Reported hepatocyte CLint at 1 μM?
0.15

###

Test details: Plasma binding of 5-MIAA (unbound fraction)
Type: in vitro ADME
Condition details: human, read-out: unbound fraction (fu), Replicate 2
Measurement kind: fraction unbound
Give bare numbers.

Entry under review: "COc1ccc2[nH]cc(CC(=O)O)c2c1" . Reported fraction unbound?
0.462
